Please respond with reported growth inhibition for every item in the list.
# experiment: NCI Yeast Anticancer Drug Screen. Data for the bub3 strain (AID 167)
# assay-setup: S. cerevisiae bub3 mutant strain, at 50.0 µM, active compounds read high
Compounds without any hit were thinned out: in the full panel of roughly 79,000, 15% have a hit.
Numbers only, in %.

Recorded growth inhibition, per entry:
compound="CC1=C(C#N)C(C#N)(C#N)C(NN(C)C)C1 (centres undefined)" observation_type="growth inhibition" endpoint_result=-15.9
compound="CC(=O)OC1Cc2ccccc2C(OC(C)=O)Cc2ccccc21 (centres undefined)" observation_type="growth inhibition" endpoint_result=18.4
compound=O=Cc1ccccc1S(=O)(=O)O observation_type="growth inhibition" endpoint_result=11.2
compound=CCC(=O)NCC(=O)O observation_type="growth inhibition" endpoint_result=8.15
compound=CC(=O)Oc1ccc(/C=N\N(C)CN(C)/N=C/c2ccc(OC(C)=O)cc2)cc1 observation_type="growth inhibition" endpoint_result=1.65

Provide growth inhibition values for the following items, in order.
1. CCOc1ccc(-n2c(C)c(COC(=O)NC)c(COC(=O)NC)c2C)cc1
2. O=C(OCCO)c1ccccc1O
3. O=[N+]([O-])c1ccc(O)c(C=NCCCN=Cc2cc([N+](=O)[O-])ccc2O)c1
4. CCCn1cnc2c(SCC(=O)O)nc(N)nc21
5. C=C1CC(C)(C)CN(Cc2ccc([N+](=O)[O-])cc2)C(C(=O)OC)=C1C(=O)OC
6. Nc1ncnc(Nc2ccc(S(=O)(=O)O)cc2)n1
7. Cc1cc(=O)[nH]c(NN2C(Cl)C(=O)C2c2cccc(Cl)c2)n1 (centres undefined)
8. S=C1c2cc(Cl)ccc2NC(=NC2CCCC2)C2CSCN12 (centres undefined)

[reply]
1: 67.2; 2: -0.9; 3: 9; 4: -22.1; 5: -13.8; 6: -34.9; 7: -10.5; 8: 33.3

Provide growth inhibition values for the following items, in order.
1. O=C(COc1ccc(Cl)cc1C(=O)O)NCc1cccc2ccccc12
2. COc1ccc(C2CCCCCC2OS(=O)(=O)c2ccc(C)cc2)c(OC)c1OC (centres undefined)
3. CCc1c(Sc2ccccn2)n(COCc2ccccc2)c(=O)[nH]c1=O
4. CC(=O)Nc1c(C)cccc1[N+](=O)[O-]
5. C#CC(N)=O
6. CCCCCCCCCCCCCCCCCC[N+](CCCC)(CCCC)CCCCCCCCCCCCCCCCCC (tested in a mixture with another compound)

[reply]
[46, 8.45, -17.8, 2.8, -6, 1.5]

====

# experiment: NCI Yeast Anticancer Drug Screen. Data for the bub3 strain (AID 167)
# assay-setup: S. cerevisiae bub3 mutant strain, at 50.0 µM, active compounds read high
The panel holds about 79,000 compounds, 15% with a hit somewhere; the sample as a whole holds those more often.
observation-type: growth inhibition (%)
Numbers only, in %.

molecule=CC1=C(C)CP(=O)(c2ccccc2)C1 observation_type="growth inhibition" endpoint_result=-3.9
molecule=O=C(Nc1ccccc1)Nc1ccc2ccccc2c1 observation_type="growth inhibition" endpoint_result=12.9
molecule="O=C1OC(c2cccc(C(F)(F)F)c2)c2ccc3ccccc3c21 (configuration not stated)" observation_type="growth inhibition" endpoint_result=10.8
molecule="CC1(C)OC2OC(C3CC3)C(OCc3ccccc3)C2O1 (configuration not stated)" observation_type="growth inhibition" endpoint_result=-10.7
molecule="COC1OC(COS(C)(=O)=O)C(OS(C)(=O)=O)C(OC(=O)c2ccccc2)C1OS(C)(=O)=O (configuration not stated)" observation_type="growth inhibition" endpoint_result=-0.85
molecule=CCOC(=O)/C(C#N)=C\NC(=O)NC observation_type="growth inhibition" endpoint_result=-5.25
molecule="C/C=C(\\CC)C(C#N)(CCC)C(=O)OCC (configuration not stated)" observation_type="growth inhibition" endpoint_result=-33.1
molecule="CCCC(=O)CC(C)C(=O)C(=O)NC12CC3CC(CC(C3)C1)C2 (configuration not stated)" observation_type="growth inhibition" endpoint_result=4.4
molecule=O=C(NCCCCCCNC(=O)Nc1cccc2ccccc12)Nc1cccc2ccccc12 observation_type="growth inhibition" endpoint_result=-2.3
molecule=CCC(C)(C)c1ccccc1 observation_type="growth inhibition" endpoint_result=8.95

Provide growth inhibition values for the following items, in order.
1. CCSc1ccc2c3c(cccc13)C(=O)N(CCc1ccccn1)C2=O
2. Cc1[nH]c(=O)cc(C(=O)O)c1CN

[reply]
6.2
-7.25

====

# experiment: NCI Yeast Anticancer Drug Screen. Data for the mec2-1 strain (AID 157)
# assay-setup: S. cerevisiae mec2-1 strain, at 50.0 µM, active compounds read high
Compounds without any hit were thinned out: in the full panel of roughly 79,000, 15% have a hit.
observation-type: growth inhibition (%)
Answers are plain numbers, in %.

compound="CC(=O)C(c1ccccc1)N(CCO)Cc1ccccc1 (stereo not drawn)" output_unit=% endpoint_result=-6
compound=CCN(CC)CCO/N=C(\c1ccccc1)c1ccccn1 output_unit=% endpoint_result=-5.95
compound=CC(=O)CCC(=O)CCC(C)=O output_unit=% endpoint_result=30.4
compound="CCCNCC(O)COc1ccc2c3c(c(=O)oc2c1)CCC3 (stereo not drawn)" output_unit=% endpoint_result=10.8
compound=O=C1C=CC(=O)c2c(Cl)ccc(O)c21 output_unit=% endpoint_result=-30.6
compound=N#CCCCOc1ccccc1 output_unit=% endpoint_result=-13.6
compound=CC1(C)OB(O)OC1(C)C output_unit=% endpoint_result=12.7
compound=Cc1cc(N(CCCCl)CCCCl)ccc1C=Nc1cc(Br)c(O)c(Br)c1 output_unit=% endpoint_result=52.4
compound="CCCOC(=O)C1(C)CCC(=O)O1 (stereo not drawn)" output_unit=% endpoint_result=6.1
compound=O=C1C/C(=C\c2cccc([N+](=O)[O-])c2)C(=O)N1 output_unit=% endpoint_result=11.3

Provide growth inhibition values for the following items, in order.
1. COc1ccc(N=Cc2c(O)ccc3ccccc23)cc1
2. CC(=O)Nc1ccc2ccccc2c1
3. CNC(=O)OC(COC)CN1CCN(c2ccccc2C)CC1 (stereo not drawn)

[reply]
1. 48
2. 5.4
3. -47.8

====

# experiment: NCI Yeast Anticancer Drug Screen. Data for the rad50 strain (AID 155);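 further: 0% = growth of vehicle-only cultures of the same strain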
# assay-setup: S. cerevisiae rad50 strain growth inhibition; at 50.0 µM; active compounds read high
About 79,000 compounds went through this panel and 15% of them were active in at least one assay; those are over-represented in the sample as a whole.
Please respond with reported growth inhibition for every item in the list.
Give bare numbers, in %.

molecule="O=C(CC(=O)C1CCOC1=O)C(=O)Nc1cccc(Cl)c1 (stereo not given)" endpoint_result=-13.8
molecule=[Cl][Mn][Cl] endpoint_result=10.2
molecule=CCOC(=O)c1c(SC(=O)c2ccc(OC)cc2)n(-c2ccccc2)c(=S)n(-c2ccccc2)c1=O endpoint_result=16.2
molecule=CCOC(=O)CSc1[nH]c(NC(=S)Nc2ccccc2)c(C(N)=O)c1C(N)=O endpoint_result=-14.2
molecule="CC1(C)OC2C(C(=O)O)OC(n3cnc4c(N)ncnc43)C2O1 (stereo not given)" endpoint_result=-3.35
molecule="C/C=C1\\C(=O)OC2CCN3CCC(COC(=O)C(C)(O)C(C)C1O)C23 (stereo not given)" endpoint_result=11.2
molecule="Cc1csc(NC(=O)C2C3CCC(O3)C2C(=O)O)n1 (stereo not given)" endpoint_result=22.1
molecule=FC(F)(c1nnnn1Cc1ccccc1)C(F)(F)C(F)(F)C(F)(F)C(F)(F)C(F)(F)C(F)(F)C(F)(F)c1nnnn1Cc1ccccc1 endpoint_result=10.2

Provide growth inhibition values for the following items, in order.
1. CN(C)C=Nc1ccc(F)cc1
2. CC(=O)N(C)c1ccccc1O
3. C(=N/NC(=N/N=C/c1ccccc1)N/N=C/c1ccccc1)/c1ccccc1
4. O=C(O)c1cccc(F)n1
5. C=C1CC(C)(Cn2c(N)nc3nc[nH]c3c2=O)OC1=O (stereo not given)
6. O=S(=O)(CSc1ccccc1)c1ccccc1
7. O=C(CCC1CCCC1)Oc1ccccc1C(=O)O
8. COC(=O)C(=O)C(C(=O)C(=O)Nc1ccc([N+](=O)[O-])cc1)c1nc2ccccc2[nH]c1=O (stereo not given)

[reply]
[-16.1, 6.6, 28.8, -0.45, 11.7, -21.9, -1.9, 10.1]

Provide growth inhibition values for the following items, in order.
1. O=c1oc2ncccc2n1Cc1ccc([N+](=O)[O-])cc1
2. COC(=O)C(=O)C(C(=O)C(N)=O)c1nc2ccc(C(=O)c3ccccc3)cc2[nH]c1=O (stereo not given)
3. Cc1ccc(/C=C(/C#N)C(N)=O)cc1
4. Clc1cc(Cc2cc(Cl)c(Cl)c3c2OCOC3)c2c(c1Cl)COCO2
5. CCN(CC)CCNC(=O)Cc1cc(O)c2c(c1O)C(=O)c1ccccc1C2=O
6. c1ccc(-c2coc(-c3ccccc3)c2)cc1
7. COc1cccc2c1C(=O)C1(O)CCCCC21 (stereo not given)

[reply]
[-14.7, 0.35, 11.2, -47.6, 73, -16.2, -55.8]

Provide growth inhibition values for the following items, in order.
1. CN1C(=O)N/C(=C\c2ccc(S(=O)(=O)NN)cc2)C1=O
2. C[N+](C)([O-])Cc1ccccc1
3. Cc1ccc(S(=O)(=O)c2ccc(C)cc2[N+](=O)[O-])c([N+](=O)[O-])c1
4. OCCN(CCO)c1ncnc2c1ncn2CCc1ccccc1
5. O=C1CCCC2=C1CC1=C(CCCC1=O)N2c1ccccc1

[reply]
1: 4.05; 2: -12.9; 3: -58.1; 4: 13.6; 5: -28.5

Data provenance is PubChem BioAssay (NCI).
